# Organism: Rattus norvegicus
# testProtocol: Open TG-GATES - Regimen: Single
# Assay type: toxicity, organism-based, Sprague-Dawley
# Parameters: regimen Single, gender Male, age 6 weeks
# appliedConditions: in vivo, po, 300 mg/kg, 6 h, tissue Plasma, route gavage, dose level Middle
endpointName: TBIL (mg/dL)

[[record]]
molecule = "NC(N)=Nc1nc(CSCCC(N)=NS(N)(=O)=O)cs1"
unitslabel = "mg/dL"
endpointvalue = 0.1

[[record]]
molecule = "COC1=CC(=O)C[C@@H](C)[C@]12Oc1c(Cl)c(OC)cc(OC)c1C2=O"
unitslabel = "mg/dL"
endpointvalue = 0.2

[[record]]
molecule = "CCOC(=O)CCC(=O)O[C@H]1[C@H](O[C@@H]2[C@@H](C)[C@H](O[C@H]3C[C@@](C)(OC)[C@@H](O)[C@H](C)O3)[C@@H](C)C(=O)O[C@H](CC)[C@@](C)(O)[C@H](O)[C@@H](C)C(=O)[C@H](C)C[C@@]2(C)O)O[C@H](C)C[C@@H]1N(C)C [ERYTHROMYCIN ETHYLSUCCINATE]"
unitslabel = "mg/dL"
endpointvalue = 0.032

[[record]]
molecule = "COc1ccc2[nH]c([S+]([O-])Cc3ncc(C)c(OC)c3C)nc2c1 (centres undefined)"
unitslabel = "mg/dL"
endpointvalue = 0.1


---

# Species: Rattus norvegicus
# testProtocol: Open TG-GATES - Regimen: Single
# Format: toxicity, organism-based, Sprague-Dawley
# Set-up: regimen Single, gender Male, age 6 weeks
# appliedConditions: in vivo, po, 0 mg/kg, 3 h, tissue Plasma, route gavage, dose level Control
endpointName: RALB (g/dL)

[[record]]
compound = "NC(N)=Nc1nc(CSCCC(N)=NS(N)(=O)=O)cs1 [FAMOTIDINE]"
endpointvalue = 3.4

[[record]]
compound = "COC1=CC(=O)C[C@@H](C)[C@]12Oc1c(Cl)c(OC)cc(OC)c1C2=O [GRISEOFULVIN]"
endpointvalue = 3.5

[[record]]
compound = "CC1=C(/C=C/C(C)=C/C=C/C(C)=C/CO)C(C)(C)CCC1 [RETINOL]"
endpointvalue = 3.2

[[record]]
compound = "Cc1ccc(C)c(OCCCC(C)(C)C(=O)O)c1 [GEMFIBROZIL]"
endpointvalue = 2.6

[[record]]
compound = "COc1ccc2[nH]c([S+]([O-])Cc3ncc(C)c(OC)c3C)nc2c1 (stereo not drawn) [OMEPRAZOLE]"
endpointvalue = 3.1

[[record]]
compound = "CCCNC(=O)NS(=O)(=O)c1ccc(Cl)cc1 [CHLORPROPAMIDE]"
endpointvalue = 2.5

[[record]]
compound = "CCOC(=O)CCC(=O)O[C@H]1[C@H](O[C@@H]2[C@@H](C)[C@H](O[C@H]3C[C@@](C)(OC)[C@@H](O)[C@H](C)O3)[C@@H](C)C(=O)O[C@H](CC)[C@@](C)(O)[C@H](O)[C@@H](C)C(=O)[C@H](C)C[C@@]2(C)O)O[C@H](C)C[C@@H]1N(C)C [ERYTHROMYCIN ETHYLSUCCINATE]"
endpointvalue = 2.9

[[record]]
compound = "CC/C(=C(\\c1ccccc1)c1ccc(OCCN(C)C)cc1)c1ccccc1 [TAMOXIFEN]"
endpointvalue = 2.6

[[record]]
compound = "COc1cc2c(c(OC)c1OC)-c1ccc(OC)c(=O)cc1[C@@H](NC(C)=O)CC2 [COLCHICINE]"
endpointvalue = 3.6

[[record]]
compound = "CN(C)CCCN1c2ccccc2CCc2ccc(Cl)cc21 [CLOMIPRAMINE]"
endpointvalue = 2.5

[[record]]
compound = "CCOc1ccc(NC(=O)CC(C)O)cc1 (stereo not drawn) [BUCETIN]"
endpointvalue = 2.5

[[record]]
compound = "CC(C)OC(=O)C(C)(C)Oc1ccc(C(=O)c2ccc(Cl)cc2)cc1 [FENOFIBRATE]"
endpointvalue = 2.4

[[record]]
compound = "CN1C(=O)CN=C(c2ccccc2)c2cc(Cl)ccc21 [DIAZEPAM]"
endpointvalue = 3.7

